Attribution: PubChem BioAssay (NCI)

test system: CAKI-1 renal; experiment: NCI tumour cell line growth inhibition, 48 h; in the data active means GI50 below about 0.43 µM; inactive means the rest
Permitted responses: t for active, f for inactive

Worked examples follow.
{"compound": "CC(C)Oc1ccc(C(=O)N[C@H](CNC(=O)CN(C)C)Cc2ccc(-c3cn4cccc([C@H](C)O)c4n3)cc2)cc1Cl", "category_label": "f"}
{"compound": "O=C(O)c1cc(Sc2ccc([N+](=O)[O-])c(C(=O)O)c2)ccc1[N+](=O)[O-]", "category_label": "f"}
{"compound": "CC/C=C\\C/C=C\\C[C@H]1C/C=C2/C(=O)C=C[C@H]2C/C=C\\CCC(=O)O1", "category_label": "f"}
{"compound": "CN1CCCN(C(c2ccccc2)c2ccc(Br)cc2)CC1 (configuration not stated)", "category_label": "f"}
{"compound": "Nc1nc2c(c3cnccc13)C(c1cccc(Cl)c1)Cc1cnccc1-2 (configuration not stated)", "category_label": "f"}

Recorded call for COc1ccc(/C=C/C(=O)c2ccc(Nc3ccnc4cc(Cl)ccc34)cc2)cc1 ?
f

Hi team, can someone confirm the assay call for COc1ccc(Nc2ncccc2C(=O)NCc2cn(Cc3cccc(Oc4ccccc4)c3)nn2)cc1 ?
f

What classification did COc1ccc(-c2nocc2-c2cc(OC)c(OC)c(OC)c2)cc1 end up with in this test?
t

Given CC([O-])C(=O)[O-].NCC1CCC1CN.[Pt+4] (configuration not stated) , state the outcome it received in this test.
f

For this compound, state the assay outcome: Nc1c(C(=O)Nc2ccccc2)sc2nc3c(cc12)CCCC3
f

Test call for this compound, please: CSc1nc2c(c(=O)[nH]1)C(c1ccc(Cl)cc1)C1=C(N2)/C(=C/c2ccc(Cl)cc2)CNC1 (configuration not stated)
f

// return assay outcome for C/C(=N\NC(=O)c1ccncc1)c1ccc(O)cc1O
f

Per the records of this test, what outcome belongs to CCc1ccc(Nc2cc(C)nc3nc(C)nn23)cc1 ?
f

What classification did Cc1ccccc1/C=C1\CN(C(=O)OC(C)(C)C)C/C(=C\c2ccccc2C)C1=O end up with in this test?
f

Assay outcome for CC(C)[C@@H]1CC[C@@H]2[C@@H]1[C@H](OC(=O)/C=C/c1ccccc1)[C@]1(C(C)C)C[C@@H](OC(=O)CO)[C@@]2(C)O1 : what was it?
t

Hi, sorry to bother you, what did the test record for C[n+]1ccc(-c2c3nc(c(-c4ccc5c(ccc[n+]5C)c4)c4ccc([nH]4)c(-c4cc[n+](C)cc4)c4nc(c(-c5ccc6c(ccc[n+]6C)c5)c5ccc2[nH]5)C=C4)C=C3)cc1 ?
f

Outcome logged for COc1cc2c3c(n(CCCCl)c(=O)c2cc1OC)-c1ccc(C#N)cc1C3=O in this assay:
f

----------
system: MALME-3M melanoma; test: NCI tumour cell line growth inhibition, 48 h
value_type: TGI

Reference set, count: 3
{"compound": "C=C1N(C)c2ccc(Cl)cc2C1(C)C", "TGI": "20.5 µM"}
{"compound": "COc1ccc(CNc2nc(NCc3ccc(OC)cc3)c3n[nH]c(C(C)C)c3n2)cc1", "TGI": "> 100 µM"}
{"compound": "O=C(Nc1c(Cl)cc([N+](=O)[O-])cc1Cl)/C(=N\\Nc1cccc(Cl)c1)c1c(O)c2ccccc2oc1=O", "TGI": "> 100 µM"}

Fill in TGI for each of the 6 compounds listed.
1. CCc1n[nH]c(=O)n1NC(=O)/C=C\C(=O)O
2. CC1=C(c2cc(C(=O)Nc3nccs3)nc(NC#N)n2)Sc2ccccc2N1
3. O=c1[nH]c(=O)n(C2CC(O)C(CO)O2)cc1C#Cc1cc(F)cc(F)c1 (stereo not given)
4. Cc1ccccc1/C=C1\CN(C(=O)OC(C)(C)C)C/C(=C\c2ccccc2C)C1=O
5. CCC/C(=N\NC(=O)c1cc2ccccc2cc1O)C(CC)C(=O)CCC(=O)N(Cc1ccccc1)Cc1ccccc1 (stereo not given)
6. S=C1SC(c2ccc(Cl)cc2)(c2ccc(Cl)cc2)c2ccccc21

1: > 100 µM; 2: > 100 µM; 3: > 100 µM; 4: 3.6 µM; 5: > 100 µM; 6: > 100 µM

For this compound ( CC(=O)NC(CCCCNC(=O)N(C)N=O)C(=O)NCc1ccccc1 (stereo not given) ), measured TGI is > 100 µM

----------
test system: HCC-2998 colon; assay: NCI tumour cell line growth inhibition, 48 h
value_type: TGI (µM)
Give bare numbers, in µM.

{"compound": "CC1Cc2cc(O)ccc2C2[C@@H]1C1CC[C@H](O)[C@@]1(C)C[C@@H]2O[N+](=O)[O-] (some centres not stated)", "result_value": 22}
{"compound": "COC(=O)[C@@H]1C[C@]2(CC=C(C)C)c3ccccc3N(S(=O)(=O)c3ccccc3)[C@@H]2N1C(=O)OC", "result_value": 40.1}

Next, consider the following compound.
Reported TGI ( COc1cc2c3c(c4c5ccccc5[nH]c4c2c(OC)c1OC)C(=O)N(CCN1CCCCC1)C3=O ) = 3.45

----------
tested on: PC-3 prostate; assay: NCI tumour cell line growth inhibition, 48 h; in the data active means GI50 below about 0.43 µM; inactive means the rest
*1 amine or outer side, *2 acyl side, *3 side chain or, on linkers, in order; H or OH if unused. Where a SMILES comes first, the peptide text is derived from it. Bridges are numbered along the chain shown (N, C = ends). [ ]: non-standard residue; d: D form. The star is where a group is joined. Phe(3-Me) = Cc1cccc(C[C@H](N)C(=O)O)c1; NH(4-Cl-2-F-phenyl) = Fc1cc(Cl)ccc1N*; Pro(4R-Me) = C[C@H]1CN[C@H](C(=O)O)C1; Propanoyl(3-NMe2) = CN(C)CCC(=O)*; Hyp = O=C(O)[C@@H]1C[C@@H](O)CN1; aThr = C[C@H](O)[C@H](N)C(=O)O; Pip = O=C(O)[C@@H]1CCCCN1; CO = O=C([*:1])[*:2]
Would you mind answering with one of these outcomes? active, inactive

{"molecule": "O=C(/C=C/c1cccnc1)c1ccccc1O", "category_label": "inactive"}
{"molecule": "CC[C@]12CCCN3CC[C@]4(C(=C(C(=O)OC)C1)Nc1ccccc14)[C@@H]32", "category_label": "inactive"}
{"molecule": "Cc1cccc(C[C@H](NC(=O)Nc2ccc(Cl)cc2F)C(=O)N[C@@H]2C(=O)N3C[C@H](OC(=O)CCN(C)C)C[C@H]3C(=O)N3CCCC[C@H]3C(=O)N[C@@H](C)C(=O)N3C[C@H](C)C[C@H]3C(=O)O[C@H]2C)c1 ({NH(4-Cl-2-F-phenyl)-CO}-[Phe(3-Me)][aThr][Hyp](Propanoyl(3-NMe2))[Pip]A[Pro(4R-Me)]; ester 2-C)", "category_label": "active"}
{"molecule": "CC/C=C\\C/C=C\\C[C@H]1C/C=C2/C(=O)C=C[C@H]2C/C=C\\CCC(=O)O1", "category_label": "inactive"}
{"molecule": "Cc1ccc(S(=O)(=O)n2cc(-c3nnnn3-c3ccc(Cl)cc3)c(=O)c3ccccc32)cc1", "category_label": "inactive"}
{"molecule": "Cc1ccccc1/C=C1\\CN(C(=O)OC(C)(C)C)C/C(=C\\c2ccccc2C)C1=O", "category_label": "inactive"}

Fill in: this test's call for O=C1c2cccnc2C(=O)c2c1c(C(=O)OCCN1CCOCC1)c1ccccn21 is ___
active

What classification did CC[C@@]1(O)C(=O)OCc2c1cc1n(c2=O)Cc2c-1nc1ccccc1c2/C=N/OC(C)(C)C end up with in this test?
active

Could you kindly confirm the outcome this assay logged for O=C(CN1CCN(c2ccc(Cl)cc2)CC1)N1CCN(c2nnc(-c3ccccc3)c(-c3ccccc3)n2)CC1 ?
inactive

What was the test verdict on C[n+]1ccc(-c2c3nc(c(-c4ccc5c(ccc[n+]5C)c4)c4ccc([nH]4)c(-c4cc[n+](C)cc4)c4nc(c(-c5ccc6c(ccc[n+]6C)c5)c5ccc2[nH]5)C=C4)C=C3)cc1 ?
inactive

Would you mind telling me which call this test gave Oc1cc2ccccc2cc1-c1n[nH]c(=S)n1-c1ccc(Cl)cc1 ?
inactive

----------
test system: BT-549 breast; experiment: NCI tumour cell line growth inhibition, 48 h
Record form. Attribute: GI50. Fill in for each entry.

Answered cases to consult:
{"compound": "CCCCCCCCCC(CCCC(O)CC(=O)O)OC1OC(COC2OC(C)C(O)C(O)C2O)C(O)C(O)C1OC1OC(CO)C(O)C(O)C1OC1OC(C)C(O)C(O)C1O (stereo unspecified)", "GI50": "> 40 µM"}
{"compound": "COc1ccc(-c2nocc2-c2cc(OC)c(OC)c(OC)c2)cc1", "GI50": "0.112 µM"}

Give measured GI50 for every item shown.
1. COc1ccc(Cn2c(Br)c3c(c2-c2cc(OC)c(OC)c(OC)c2)CCc2sc(NC(C)=O)nc2-3)cc1
2. CC(=O)Nc1sc2c(c1-c1nc3ccccc3s1)CNC2
3. CC[C@@]1(O)C(=O)OCc2c1cc1n(c2=O)Cc2c-1nc1ccccc1c2/C=N/OC(C)(C)C
4. O=C1C(Cl)=C(Nc2cccc(O)c2)C(=O)N1c1cccc(Cl)c1Cl
5. C[n+]1ccc(-c2c3nc(c(-c4ccc5c(ccc[n+]5C)c4)c4ccc([nH]4)c(-c4cc[n+](C)cc4)c4nc(c(-c5ccc6c(ccc[n+]6C)c5)c5ccc2[nH]5)C=C4)C=C3)cc1
6. Cc1ccc(S(=O)(=O)n2cc(-c3nnnn3-c3ccc(Cl)cc3)c(=O)c3ccccc32)cc1
7. CN1CCCN(C(c2ccccc2)c2ccc(Br)cc2)CC1 (stereo unspecified)
8. N=c1ccn2c(n1)O[C@@H]1[C@@H](O)[C@H](CO)O[C@@H]12

3.18 µM
6.83 µM
< 0.0139 µM
24.5 µM
35.9 µM
> 100 µM
4.89 µM
41.3 µM

Each of the following entries comes with a recorded value; kindly state GI50 for each.
1. CC([O-])C(=O)[O-].NCC1CCC1CN.[Pt+4] (stereo unspecified)
2. O=C(Nc1ccc(Br)cc1F)c1cc(Br)ccc1O

["> 10 µM", "0.403 µM"]

Please supply GI50 for each of the following items, keeping them in order.
1. C[C@]12CC[C@H]3[C@@H](C[C@@H]4N=C(c5ccc(O)cc5)S[C@@]45C[C@H](O)CC[C@]35C)[C@@H]1CC[C@@H]2O
2. CCN1CCN(C(=O)[C@]23CCC(C)(C)C[C@@H]2C2=CC[C@@H]4[C@@]5(C)C/C(=C/c6cccnc6)C(=O)C(C)(C)[C@@H]5CC[C@@]4(C)[C@]2(C)CC3)CC1
3. O=CC1(C2(C=O)c3ccccc3-c3ccccc32)c2ccccc2-c2ccccc21
4. O=C1c2cccnc2C(=O)c2c1c(C(=O)OCCN1CCOCC1)c1ccccn21

1: 1.14 µM; 2: 1.47 µM; 3: 2.01 µM; 4: 0.05 µM
